Ref: patent US5342845A

Provide the recorded Latency to vomiting for the entries that follow.
- System: cisplatin-induced vomiting
- testDescription: Inhibition of cisplatin-induced vomiting
- Type: in vivo, beagle dogs
- conditionLabel: 0.03 mg/kg i.v.; control 118.9 ± 5.6
Structures can show the parent of a compound that is named as a salt.
Numbers only here, please. The scale is min.

Form field: reported Latency to vomiting of Cn1c(-c2ccc(Cl)cc2)c(C(=O)N[C@@H]2CN3CCC2CC3)c2ccccc21 [Example 7, hydrochloride]
206.8

Form field: reported Latency to vomiting of Cn1c(-c2ccccc2)c(C(=O)N[C@@H]2CN3CCC2CC3)c2ccccc21 [Example 3, hydrochloride]
215.0

Form field: reported Latency to vomiting of COc1ccc(-c2c(C(=O)N[C@@H]3CN4CCC3CC4)c3ccccc3n2C)cc1 [Example 2, hydrochloride]
192.0

Form field: reported Latency to vomiting of CN1C2CCC1CC(OC(=O)c1c[nH]c3ccccc13)C2 (stereo not shown) [ICS-205-930, reference compound]
139.8
